src = paper PMC10692146

# tgt: reduced p38α (MAPK14), recombinant mouse protein kept with reducing agent (DTT or TCEP) (mouse, UniProt P47811 1-360)
# Sequence (P47811 whole entry): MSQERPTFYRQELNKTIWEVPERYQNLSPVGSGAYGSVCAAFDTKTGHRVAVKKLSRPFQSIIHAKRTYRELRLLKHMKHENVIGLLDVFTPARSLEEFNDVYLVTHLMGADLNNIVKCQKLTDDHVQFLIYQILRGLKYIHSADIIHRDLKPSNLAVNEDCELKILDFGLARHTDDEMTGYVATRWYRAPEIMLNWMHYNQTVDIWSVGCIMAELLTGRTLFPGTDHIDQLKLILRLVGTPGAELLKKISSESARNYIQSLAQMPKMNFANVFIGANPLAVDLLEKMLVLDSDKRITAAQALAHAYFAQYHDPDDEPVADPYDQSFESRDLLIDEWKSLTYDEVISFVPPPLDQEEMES
# measurement_description: ITC; oxidized p38α re-reduced by dialysis with TCEP
Where no end group is shown, it is not given here.
measured_endpoint: Kd (nM)
Only the number, expressed in nM, is required.

Report Kd for RVYPVSVPYSSAQSTSKTSVTLSLVMPSQ (also: FITC label, end not given here) [FITC-TAB1 peptide (amino acids 384-412 of TAB1)] please. 2660
